B1: TPR t1 (parent)
chain: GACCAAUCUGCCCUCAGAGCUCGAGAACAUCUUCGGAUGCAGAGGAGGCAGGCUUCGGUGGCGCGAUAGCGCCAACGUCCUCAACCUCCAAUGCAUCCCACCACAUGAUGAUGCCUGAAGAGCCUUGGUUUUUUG

Variants of: B1
Test: polymerase ribozyme fitness, log enrichment relative to wild type (log ratio); higher = more active; in vitro selection for triplet polymerase activity
# Lookup of reported polymerase ribozyme fitness (log ratio) keyed by entry
Form: value (number only, do not type unit).

Sample records with polymerase ribozyme fitness (log ratio):
Mutation Key	Measured
C12U A91U	-1.85
A6U G10U C15G C28A A100C C123U	-5.42
U7G C12A A43U C73A	-1.44
A66C U133A	-0.805
G19U A29G	-4.96

Prompt line: Tell us which polymerase ribozyme fitness (log ratio) value is on record for C49G C70A G110A A121C
Response line: -4.74

Prompt line: Tell us which polymerase ribozyme fitness (log ratio) value is on record for A29U U30G G57U G63C C72U G120A
Response line: -7.09

Prompt line: Tell us which polymerase ribozyme fitness (log ratio) value is on record for C22U G113A
Response line: -4.09

Prompt line: Tell us which polymerase ribozyme fitness (log ratio) value is on record for C56G A83C C101A C124G
Response line: 0.428

Prompt line: Tell us which polymerase ribozyme fitness (log ratio) value is on record for C8G C124A
Response line: 2.31

Prompt line: Tell us which polymerase ribozyme fitness (log ratio) value is on record for A43U G57C C98U U126A
Response line: -4.59

Data origin: the RNAGym collection of RNA variant scans (doi:10.1073/pnas.2313332121)
